molecular target: CCR2 receptor (Homo sapiens); construct: expressed in transfected cells; assay: compound-induced calcium activity on FLIPR Tetra in HEK-Gqi5 cells stably expressing CCR2; format: cell-based; conditions: CCR2 receptor; HEK-Gqi5 cells stably expressing CCR2; calcium FLIPR Tetra; further: test concentration or dose not given here
Sequence (P41597 whole entry): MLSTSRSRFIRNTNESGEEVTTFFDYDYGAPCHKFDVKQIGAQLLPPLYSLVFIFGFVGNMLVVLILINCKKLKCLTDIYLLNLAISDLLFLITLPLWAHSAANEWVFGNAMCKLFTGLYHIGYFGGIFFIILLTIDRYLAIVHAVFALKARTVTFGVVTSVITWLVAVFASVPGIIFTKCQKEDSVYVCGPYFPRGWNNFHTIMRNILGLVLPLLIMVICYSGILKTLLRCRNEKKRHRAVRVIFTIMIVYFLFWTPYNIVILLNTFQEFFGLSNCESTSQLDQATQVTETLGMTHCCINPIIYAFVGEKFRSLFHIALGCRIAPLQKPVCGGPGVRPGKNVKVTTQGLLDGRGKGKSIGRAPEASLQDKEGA
Reported values of % ANTAGONISM for individual entries

| Molecule | % ANTAGONISM / % |
| --- | --- |
| Nc1cccc(CS(=O)(=O)c2ncccc2NS(=O)(=O)c2cc3ccccc3o2)c1 | 102 |
| Nc1cccc(CSc2ncccc2NS(=O)(=O)c2cc3ccccc3o2)c1 | 99 |
| O=S(=O)(Nc1cc(Cl)cnc1S(=O)(=O)c1ccccc1)c1cc2ccccc2o1 | 105 |
| O=C(O)c1ccccc1CS(=O)(=O)c1ncc(Cl)cc1NS(=O)(=O)c1cc2ccccc2o1 | 32 |
| O=S(=O)(Nc1cccnc1SCc1ccccc1)c1cc2ccccc2o1 | 80 |
| O=C(c1ccccc1)c1ncc(Cl)cc1NS(=O)(=O)c1cc2ccccc2o1 | 100 |
| O=C1CCN(C(=O)c2ncc(Cl)cc2NS(=O)(=O)c2cc3ccccc3o2)CC1 | 105 |
| O=S(=O)(Nc1cccnc1[S+]([O-])Cc1ccccc1)c1cc2ccccc2o1 (stereo not drawn) | 100 |
| Cc1cnc([S+]([O-])c2ccccc2)c(NS(=O)(=O)c2cc3ccccc3o2)c1 (stereo not drawn) | 105 |
| O=S(=O)(Nc1cc(Cl)cnc1[S+]([O-])c1ccccc1)c1cc2ccccc2o1 (stereo not drawn) | 99 |
| O=S(=O)(Nc1cc(Cl)cnc1SCc1ccccc1)c1cc2ccccc2o1 | 83 |
| O=S(=O)(Nc1cc(Cl)cnc1SCc1cccnc1)c1cc2ccccc2o1 | 95 |
| O=C(O)c1ccccc1CS(=O)(=O)c1ncccc1NS(=O)(=O)c1cc2ccccc2o1 | 57 |
| O=C(O)c1ccccc1CSc1ncccc1NS(=O)(=O)c1cc2ccccc2o1 | 98 |
| O=S(=O)(Cc1cccnc1)c1ncc(Cl)cc1NS(=O)(=O)c1cc2ccccc2o1 | 84 |
| Cc1cnc(S(=O)(=O)c2ccccc2)c(NS(=O)(=O)c2cc3ccccc3o2)c1 | 57 |
| COC(=O)c1ccccc1CSc1ncc(Cl)cc1NS(=O)(=O)c1cc2ccccc2o1 | 91 |
| O=S(=O)(Cc1ccccc1)c1ncccc1NS(=O)(=O)c1cc2ccccc2o1 | 95 |
